- procedure text: xn = mol fraction of the nth substance listed
- condition set: 313.15 K; 101 kPa; Liquid; x1 = 0.4001
quantity: mass density (kg/m3)

1) CN1CCN(C)C1=O [1,3-dimethyl-2-imidazolidinone] + CCCCCO: 895.74
2) CN1CCN(C)C1=O [1,3-dimethyl-2-imidazolidinone] + CCCO: 912.63
3) CN1CCN(C)C1=O [1,3-dimethyl-2-imidazolidinone] + CCCCCCO: 890.13
4) CN1CCN(C)C1=O [1,3-dimethyl-2-imidazolidinone] + CCCCCCCCO: 881.63

###

- procedure text: xn = mol fraction of the nth substance listed
- condition set: 298.15 K; 101 kPa; Liquid; x1 = 0.2
quantity: mass density (kg/m3)

1. CN1CCN(C)C1=O [1,3-dimethyl-2-imidazolidinone] + CCO: 873.26
2. CN1CCN(C)C1=O [1,3-dimethyl-2-imidazolidinone] + CCCCCO: 859.39
3. CN1CCN(C)C1=O [1,3-dimethyl-2-imidazolidinone] + CCCCO: 862.67
4. CN1CCN(C)C1=O [1,3-dimethyl-2-imidazolidinone] + CCCCCCCCO: 854.88
5. CN1CCN(C)C1=O [1,3-dimethyl-2-imidazolidinone] + CCCO: 868.25
6. CN1CCN(C)C1=O [1,3-dimethyl-2-imidazolidinone] + CCCCCCO: 857.49

###

- procedure text: xn = mol fraction of the nth substance listed
- condition set: 283.15 K; 101 kPa; Liquid; x1 = 0.4001
quantity: mass density (kg/m3)

1. CN1CCN(C)C1=O [1,3-dimethyl-2-imidazolidinone] + CCCO: 938.4
2. CN1CCN(C)C1=O [1,3-dimethyl-2-imidazolidinone] + CCCCCCCCO: 904.35
3. CN1CCN(C)C1=O [1,3-dimethyl-2-imidazolidinone] + CCCCCO: 919.88
4. CN1CCN(C)C1=O [1,3-dimethyl-2-imidazolidinone] + CCCCCCO: 913.77

###

Below, each entry is listed alongside its reported mass density.
- condition set: 298.15 K; 101.33 kPa; Liquid
quantity: mass density (kg/m3)

1. CN1CCN(C)C1=O: 1051.59
2. CCO: 785.13
3. CCCCCCCO: 818.78
4. CCCO: 799.59
5. CCCCCCO: 815.34
6. CCCCCCCCO: 821.72
7. CCCCCO: 810.88
8. CO: 786.56
9. CCCCO: 805.79

###

- procedure text: xn = mol fraction of the nth substance listed
- condition set: 313.15 K; 101 kPa; Liquid; x1 = 0.2
quantity: mass density (kg/m3)

1. CN1CCN(C)C1=O [1,3-dimethyl-2-imidazolidinone] + CCCO: 855.56
2. CN1CCN(C)C1=O [1,3-dimethyl-2-imidazolidinone] + CCCCO: 850.54
3. CN1CCN(C)C1=O [1,3-dimethyl-2-imidazolidinone] + CCCCCO: 847.72
4. CN1CCN(C)C1=O [1,3-dimethyl-2-imidazolidinone] + CCCCCCCCO: 843.97
5. CN1CCN(C)C1=O [1,3-dimethyl-2-imidazolidinone] + CCCCCCO: 846.12
6. CN1CCN(C)C1=O [1,3-dimethyl-2-imidazolidinone] + CCO: 859.85

###

- procedure text: xn = mol fraction of the nth substance listed
- condition set: 313.15 K; 101 kPa; Liquid; x1 = 0.6001
Below, each entry is listed alongside its reported mass density.
quantity: mass density (kg/m3)

1. CN1CCN(C)C1=O [1,3-dimethyl-2-imidazolidinone] + CCCCCCO: 936.71
2. CN1CCN(C)C1=O [1,3-dimethyl-2-imidazolidinone] + CCCCCO: 943.56
3. CN1CCN(C)C1=O [1,3-dimethyl-2-imidazolidinone] + CCCCCCCO: 930.78
4. CN1CCN(C)C1=O [1,3-dimethyl-2-imidazolidinone] + CCCO: 961.08
